All values here come from ChEMBL document CHEMBL2401705.

- system_tested: serum albumin (Homo sapiens)
- Sequence (P02768 whole entry): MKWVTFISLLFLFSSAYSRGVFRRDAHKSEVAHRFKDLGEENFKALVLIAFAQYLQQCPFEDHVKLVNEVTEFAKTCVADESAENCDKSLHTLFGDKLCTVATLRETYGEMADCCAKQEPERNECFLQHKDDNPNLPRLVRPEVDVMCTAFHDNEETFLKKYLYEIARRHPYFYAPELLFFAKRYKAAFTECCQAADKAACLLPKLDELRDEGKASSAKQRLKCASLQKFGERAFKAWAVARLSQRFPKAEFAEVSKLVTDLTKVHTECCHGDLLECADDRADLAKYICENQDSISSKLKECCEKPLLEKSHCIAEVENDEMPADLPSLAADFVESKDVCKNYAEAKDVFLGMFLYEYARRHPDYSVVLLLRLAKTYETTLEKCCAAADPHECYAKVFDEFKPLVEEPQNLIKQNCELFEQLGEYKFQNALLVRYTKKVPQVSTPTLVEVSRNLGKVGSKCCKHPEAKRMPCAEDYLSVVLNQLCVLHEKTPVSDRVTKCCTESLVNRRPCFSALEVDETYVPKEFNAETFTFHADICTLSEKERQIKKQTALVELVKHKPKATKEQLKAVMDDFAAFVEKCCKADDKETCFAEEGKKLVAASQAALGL
- assay_method_text: Binding affinity to human serum albumin
- Format: ADME
- condition_label: read-out: PB (converted)
reported_property: fraction unbound

• CCC(C#N)(CC)Nc1nc(NC)nc(-n2cncn2)n1 = 0.49

a = O=C(Nc1c(Cl)cncc1Cl)c1ccc(OC(F)F)c(OCC2CC2)c1 [ROFLUMILAST]
b = COc1ccc(C2CNC(=O)C2)cc1OC1CCCC1 (racemic) [ROLIPRAM]
c = COc1ccc([C@]2(C#N)CC[C@@H](C(=O)O)CC2)cc1OC1CCCC1 [CILOMILAST]
Which order do these items take when sorted by rising fraction unbound? List them. Response format: the labels, sorted as the prompt asks.
a, c, b
(a: 0.03, c: 0.09, b: 0.42)

----------
- system_tested: 3',5'-cyclic-AMP phosphodiesterase 4A (Homo sapiens)
pIC50: −log10 of the molar value.
reported_property: pIC50

Examples from the recorded data:
• CCCC(C#N)(CC)Nc1nc(NC)nc(-n2cncn2)n1 (racemic) = 8.96
• CCC(C#N)(CC)Nc1nc(NC)nc(-n2cncn2)n1 = 9.09
• C#CC1(Nc2nc(Cl)nc(NC)n2)CCCCC1 = 6.83

I = CCC(C)(CC)Nc1nc(Cl)nc(NC)n1
II = CN(c1nc(N)nc(Cl)n1)C1(C#N)CCCCC1
Just tell me: smaller pIC50 value, I or II ? Your answer should be the label of the entry you select.
II
(II: 6.25, I: 6.81)

----------
- system_tested: cGMP-specific 3',5'-cyclic phosphodiesterase (Homo sapiens, UniProt O76074)
- assay_method_text: Inhibition of human recombinant PDE5A
pIC50: −log10 of the molar value.
reported_property: pIC50

Kindly note the recorded pIC50 for CCC(C#N)(CC)Nc1nc(NC)nc(-n2cncn2)n1 , which is < 6.00

----------
- assay_method_text: Intrinsic clearance in human liver microsomes
- Assay type: ADME, Microsome
- condition_label: read-out: CLH
reported_property: CLint scaled

The value of CLint scaled measured for the compound CCC(C#N)(CC)Nc1nc(NC)nc(-n2cncn2)n1 turned out to be < 1 mL/min/kg

----------
- Tested on: PBMC
- assay_method_text: Inhibition of TNFalpha production in human PBMC
- Assay type: functional, cell-based
reported_property: IC50 (µM)
Numeric only. Scale: µM

For CCC(C#N)(CC)Nc1nc(NC)nc(-n2cncn2)n1 the compound record lists IC50 as 0.022

----------
- assay_method_text: Volume of distribution in rat at 3 mg/kg
- Format: ADME, organism-based
- Set-up: dose 3 mg/kg
- condition_label: in vivo
reported_property: Vd (L/kg)
Write the number in L/kg without appending the unit.

Lab note: CCC(C#N)(CC)Nc1nc(NC)nc(-n2cncn2)n1 gave Vd of 0.5

----------
- system_tested: Dual 3',5'-cyclic-AMP and -GMP phosphodiesterase 11A (Homo sapiens, UniProt Q9HCR9)
- Sequence (Q9HCR9 whole entry): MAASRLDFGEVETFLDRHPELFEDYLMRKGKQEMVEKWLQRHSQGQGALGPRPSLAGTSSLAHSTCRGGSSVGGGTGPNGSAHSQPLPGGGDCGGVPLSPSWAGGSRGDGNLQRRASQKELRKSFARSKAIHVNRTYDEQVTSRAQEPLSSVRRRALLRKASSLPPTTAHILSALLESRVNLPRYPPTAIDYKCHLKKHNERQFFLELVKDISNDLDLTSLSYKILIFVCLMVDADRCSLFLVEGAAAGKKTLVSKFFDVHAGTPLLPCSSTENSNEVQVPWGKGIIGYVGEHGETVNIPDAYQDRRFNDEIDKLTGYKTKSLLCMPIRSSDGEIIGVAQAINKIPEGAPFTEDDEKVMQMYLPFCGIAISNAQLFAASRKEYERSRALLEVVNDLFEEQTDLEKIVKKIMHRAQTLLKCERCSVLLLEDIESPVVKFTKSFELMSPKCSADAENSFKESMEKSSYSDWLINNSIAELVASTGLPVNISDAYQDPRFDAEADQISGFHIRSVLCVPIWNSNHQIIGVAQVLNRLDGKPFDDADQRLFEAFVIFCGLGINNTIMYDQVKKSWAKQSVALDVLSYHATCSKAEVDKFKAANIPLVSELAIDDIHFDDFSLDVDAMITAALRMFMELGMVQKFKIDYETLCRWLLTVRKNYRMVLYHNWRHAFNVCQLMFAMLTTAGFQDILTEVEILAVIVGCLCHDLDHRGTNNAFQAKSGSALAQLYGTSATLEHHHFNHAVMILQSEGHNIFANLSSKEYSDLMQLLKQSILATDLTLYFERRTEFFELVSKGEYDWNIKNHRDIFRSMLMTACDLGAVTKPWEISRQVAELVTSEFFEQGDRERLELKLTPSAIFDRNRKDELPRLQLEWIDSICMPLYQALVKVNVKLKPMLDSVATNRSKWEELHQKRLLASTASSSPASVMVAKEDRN
- assay_method_text: Inhibition of human recombinant PDE11A
pIC50: −log10 of the molar value.
reported_property: pIC50

Value of measured pIC50 for the entry CCC(C#N)(CC)Nc1nc(NC)nc(-n2cncn2)n1 : < 6.00

----------
- system_tested: Cytochrome P450 2D6 (Homo sapiens, UniProt P10635)
- Sequence (P10635 whole entry): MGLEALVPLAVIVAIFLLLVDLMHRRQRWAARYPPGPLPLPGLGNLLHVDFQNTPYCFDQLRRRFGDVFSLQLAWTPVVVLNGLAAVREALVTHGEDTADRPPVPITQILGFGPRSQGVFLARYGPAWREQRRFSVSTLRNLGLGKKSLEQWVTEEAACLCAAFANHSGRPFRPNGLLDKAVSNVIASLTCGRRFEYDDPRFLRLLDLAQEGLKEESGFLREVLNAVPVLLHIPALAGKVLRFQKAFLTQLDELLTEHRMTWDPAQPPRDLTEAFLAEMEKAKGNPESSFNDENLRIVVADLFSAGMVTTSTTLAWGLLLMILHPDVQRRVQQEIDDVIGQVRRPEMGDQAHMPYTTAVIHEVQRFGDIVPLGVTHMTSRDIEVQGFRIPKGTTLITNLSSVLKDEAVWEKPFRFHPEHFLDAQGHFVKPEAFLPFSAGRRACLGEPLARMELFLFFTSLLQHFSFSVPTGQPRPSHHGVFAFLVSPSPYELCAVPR
pIC50: −log10 of the molar value.
reported_property: pIC50

CCC(C#N)(CC)Nc1nc(NC)nc(-n2cncn2)n1 has a reported pIC50 of < 5.00

----------
- system_tested: UniProtKB O76083
- Sequence (O76083 whole entry): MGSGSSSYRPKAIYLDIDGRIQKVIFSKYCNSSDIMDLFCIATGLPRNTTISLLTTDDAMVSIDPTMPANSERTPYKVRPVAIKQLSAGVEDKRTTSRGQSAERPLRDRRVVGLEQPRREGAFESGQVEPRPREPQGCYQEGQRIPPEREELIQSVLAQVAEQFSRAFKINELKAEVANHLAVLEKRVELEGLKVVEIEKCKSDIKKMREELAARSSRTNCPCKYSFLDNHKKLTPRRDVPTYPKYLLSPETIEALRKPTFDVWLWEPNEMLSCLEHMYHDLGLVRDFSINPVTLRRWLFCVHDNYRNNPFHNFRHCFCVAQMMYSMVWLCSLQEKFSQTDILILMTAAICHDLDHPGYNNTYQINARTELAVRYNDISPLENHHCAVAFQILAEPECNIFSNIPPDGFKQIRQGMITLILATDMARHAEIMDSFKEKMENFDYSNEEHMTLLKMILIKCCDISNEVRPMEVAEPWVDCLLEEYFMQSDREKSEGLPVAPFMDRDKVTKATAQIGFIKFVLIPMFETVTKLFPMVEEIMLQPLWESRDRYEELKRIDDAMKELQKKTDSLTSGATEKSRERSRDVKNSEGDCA
- assay_method_text: Inhibition of human recombinant PDE9A
pIC50: −log10 of the molar value.
reported_property: pIC50

Entry CCC(C#N)(CC)Nc1nc(NC)nc(-n2cncn2)n1 — recorded pIC50 = < 6.00

----------
- system_tested: Cytochrome P450 2C19 (Homo sapiens, UniProt P33261)
- Sequence (P33261 whole entry): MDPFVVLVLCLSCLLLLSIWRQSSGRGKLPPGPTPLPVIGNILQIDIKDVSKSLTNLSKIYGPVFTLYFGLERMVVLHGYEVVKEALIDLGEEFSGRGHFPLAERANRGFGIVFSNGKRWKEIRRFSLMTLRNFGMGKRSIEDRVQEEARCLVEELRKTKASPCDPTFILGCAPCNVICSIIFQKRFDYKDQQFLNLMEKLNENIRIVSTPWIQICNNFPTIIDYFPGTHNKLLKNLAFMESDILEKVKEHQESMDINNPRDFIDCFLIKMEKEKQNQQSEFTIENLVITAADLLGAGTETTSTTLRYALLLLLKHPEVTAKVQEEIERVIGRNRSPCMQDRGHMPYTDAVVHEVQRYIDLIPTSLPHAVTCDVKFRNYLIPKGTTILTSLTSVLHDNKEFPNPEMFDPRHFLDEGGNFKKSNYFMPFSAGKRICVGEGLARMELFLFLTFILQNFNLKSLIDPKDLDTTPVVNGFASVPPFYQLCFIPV
reported_property: IC50

IC50 measured on CCC(C#N)(CC)Nc1nc(NC)nc(-n2cncn2)n1 = > 10 µM

----------
- assay_method_text: Clearance in rat at 3 mg/kg, iv
- Assay type: ADME, organism-based
- Set-up: dose 3 mg/kg, route intravenous
- condition_label: in vivo
reported_property: clearance (mL/min/kg)
Please state the figure in mL/min/kg; there is no need to write the unit.

// field: clearance; key: CCC(C#N)(CC)Nc1nc(NC)nc(-n2cncn2)n1 ; value = 3.3

----------
- system_tested: cGMP-inhibited 3',5'-cyclic phosphodiesterase 3A (Homo sapiens)
- assay_method_text: Inhibition of human recombinant PDE3A
reported_property: IC50

According to the records, this molecule CCC(C#N)(CC)Nc1nc(NC)nc(-n2cncn2)n1 displays IC50 of > 1 µM

----------
- system_tested: Cytochrome P450 2C9 (Homo sapiens)
pIC50: −log10 of the molar value.
reported_property: pIC50

Summary for this compound, CCC(C#N)(CC)Nc1nc(NC)nc(-n2cncn2)n1 : pIC50 is < 5.00

----------
- assay_method_text: Half life in rat at 3 mg/kg, iv
- Type: ADME, organism-based
- Parameters: dose 3 mg/kg, route intravenous
- condition_label: in vivo
reported_property: half-life (h)
Give the value, in units of h, as a plain number.

CCC(C#N)(CC)Nc1nc(NC)nc(-n2cncn2)n1 has a reported half-life of 1.7

----------
- assay_method_text: Oral bioavailability in rat
- Format: ADME, organism-based
- condition_label: in vivo
reported_property: bioavailability (%)
Expressed in %, but write only the number.

Field bioavailability (entry CCC(C#N)(CC)Nc1nc(NC)nc(-n2cncn2)n1 ) reads 41

----------
pIC50: −log10 of the molar value.
The listing below reports pIC50 for compounds tested on 3',5'-cyclic-AMP phosphodiesterase 4A (Homo sapiens, UniProt P27815).
Sequence (P27815 whole entry): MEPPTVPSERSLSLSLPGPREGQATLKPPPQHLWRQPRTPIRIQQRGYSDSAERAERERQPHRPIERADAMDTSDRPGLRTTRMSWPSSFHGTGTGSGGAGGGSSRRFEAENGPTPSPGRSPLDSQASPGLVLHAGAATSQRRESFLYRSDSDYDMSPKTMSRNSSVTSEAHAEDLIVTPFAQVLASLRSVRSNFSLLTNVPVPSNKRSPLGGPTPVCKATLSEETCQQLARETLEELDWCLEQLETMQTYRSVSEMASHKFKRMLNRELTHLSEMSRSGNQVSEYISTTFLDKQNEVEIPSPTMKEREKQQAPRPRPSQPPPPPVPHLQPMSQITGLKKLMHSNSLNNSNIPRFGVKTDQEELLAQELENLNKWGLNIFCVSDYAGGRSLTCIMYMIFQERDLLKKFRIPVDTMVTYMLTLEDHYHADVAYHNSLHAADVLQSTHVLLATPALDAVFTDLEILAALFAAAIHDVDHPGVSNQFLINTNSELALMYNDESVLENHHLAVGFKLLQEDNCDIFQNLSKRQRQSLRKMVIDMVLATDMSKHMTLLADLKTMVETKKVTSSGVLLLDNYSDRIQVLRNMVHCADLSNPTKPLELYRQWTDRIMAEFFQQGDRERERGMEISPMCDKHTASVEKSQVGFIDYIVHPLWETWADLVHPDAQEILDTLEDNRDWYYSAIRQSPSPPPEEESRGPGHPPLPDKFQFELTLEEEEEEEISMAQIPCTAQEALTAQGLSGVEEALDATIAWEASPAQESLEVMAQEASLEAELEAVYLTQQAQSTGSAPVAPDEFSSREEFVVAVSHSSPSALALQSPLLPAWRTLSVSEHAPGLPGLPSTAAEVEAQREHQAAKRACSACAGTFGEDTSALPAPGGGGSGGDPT
reported_property: pIC50

Look over these answered cases.
- CNc1nc(C#N)nc(NC2(C#N)CCCCC2)n1: 7.42
- CNc1nc(NC2(C#N)CCCCC2)nc(C2CC2)n1: 7.72
- CNc1nc(NC2(C#N)CCCCC2)nc(-n2cccn2)n1: 8.44

a = CCNc1nc(Cl)nc(NC2(C#N)CCCCC2)n1
b = CNc1nc(NC2(C#N)CCCC2)nc(-n2cncn2)n1
c = CCCC(C#N)(CCC)Nc1nc(NC)nc(-n2cncn2)n1
d = CCCC(C#N)(CCC)Nc1nc(Cl)nc(NC)n1
rank_up(items): orders items by reported pIC50 in ascending numerical order. State the ranking by listing the labels in the requested order.
a, d, c, b
(a: 6.63, d: 7.22, c: 8.19, b: 8.85)

----------
- system_tested: Cytochrome P450 1A2 (Homo sapiens)
pIC50: −log10 of the molar value.
reported_property: pIC50

Sample CCC(C#N)(CC)Nc1nc(NC)nc(-n2cncn2)n1 , system: Cytochrome P450 1A2 (Homo sapiens). Its pIC50 is < 5.00

----------
- system_tested: cGMP-dependent 3',5'-cyclic phosphodiesterase (Homo sapiens, UniProt O00408)
- Sequence (O00408 whole entry): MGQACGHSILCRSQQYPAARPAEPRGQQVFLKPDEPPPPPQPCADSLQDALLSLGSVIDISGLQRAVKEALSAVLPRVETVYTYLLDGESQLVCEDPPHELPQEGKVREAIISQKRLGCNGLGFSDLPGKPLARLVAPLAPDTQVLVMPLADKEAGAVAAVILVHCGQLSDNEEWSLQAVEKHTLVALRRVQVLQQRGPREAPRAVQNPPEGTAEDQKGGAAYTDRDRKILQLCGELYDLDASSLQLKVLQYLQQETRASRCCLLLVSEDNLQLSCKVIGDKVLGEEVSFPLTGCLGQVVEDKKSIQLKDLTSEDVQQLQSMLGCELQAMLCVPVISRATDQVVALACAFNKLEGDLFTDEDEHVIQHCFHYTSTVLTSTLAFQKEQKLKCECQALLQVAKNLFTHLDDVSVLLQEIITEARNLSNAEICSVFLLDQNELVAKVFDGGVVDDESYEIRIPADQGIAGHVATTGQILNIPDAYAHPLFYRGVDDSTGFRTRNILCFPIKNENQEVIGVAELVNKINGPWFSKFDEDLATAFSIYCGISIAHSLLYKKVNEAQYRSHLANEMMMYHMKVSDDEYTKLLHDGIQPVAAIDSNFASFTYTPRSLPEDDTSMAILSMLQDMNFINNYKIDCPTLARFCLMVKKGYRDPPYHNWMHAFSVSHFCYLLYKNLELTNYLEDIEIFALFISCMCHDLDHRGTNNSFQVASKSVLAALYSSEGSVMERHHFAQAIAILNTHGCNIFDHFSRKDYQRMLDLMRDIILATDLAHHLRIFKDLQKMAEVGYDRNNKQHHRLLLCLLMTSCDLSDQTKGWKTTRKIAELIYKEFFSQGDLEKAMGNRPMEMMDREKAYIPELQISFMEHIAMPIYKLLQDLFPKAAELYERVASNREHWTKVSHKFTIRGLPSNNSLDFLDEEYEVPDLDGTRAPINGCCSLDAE
- assay_method_text: Inhibition of human recombinant PDE2A
pIC50: −log10 of the molar value.
reported_property: pIC50

Lab note: measured pIC50 of CCC(C#N)(CC)Nc1nc(NC)nc(-n2cncn2)n1 was < 6.00

----------
- system_tested: 3',5'-cyclic-AMP phosphodiesterase 4B (Homo sapiens)
reported_property: IC50 (pM)
Your answer should be a plain number; it is taken to be in pM.

Known value: 3',5'-cyclic-AMP phosphodiesterase 4B (Homo sapiens) IC50 of the compound CCC(C#N)(CC)Nc1nc(NC)nc(-n2cncn2)n1 equals 870

----------
- assay_method_text: Intrinsic clearance in dog liver microsomes
- Assay type: ADME, Canis lupus familiaris, Microsome
- condition_label: read-out: CLH
reported_property: CLint scaled

molecule CCC(C#N)(CC)Nc1nc(NC)nc(-n2cncn2)n1 , CLint scaled observed: < 1 mL/min/kg

----------
- assay_method_text: Aqueous solubility of the compound at pH 7.4
- condition_label: buffer
reported_property: solubility (µg/mL)

These recorded examples may help you get a feel for the data.
- CCC(C)(C#N)Nc1nc(NC)nc(-n2cncn2)n1 (racemic): 50
- COc1ccc(C2CNC(=O)C2)cc1OC1CCCC1 (racemic): 171
- CNc1nc(NC(C#N)(C2CC2)C2CC2)nc(-n2cncn2)n1: 22
- CNc1nc(NC2(C#N)CCCCC2)nc(-n2cncn2)n1: 11
- CNc1nc(NC2(C#N)CCCCC2C)nc(-n2cncn2)n1 (mixture of isomers): 25

P = O=C(Nc1c(Cl)cncc1Cl)c1ccc(OC(F)F)c(OCC2CC2)c1
Q = COc1ccc([C@]2(C#N)CC[C@@H](C(=O)O)CC2)cc1OC1CCCC1
R = CNc1nc(NC2(C#N)CCCCCC2)nc(-n2cncn2)n1
Please rank these compounds by solubility in descending order. Write the labels out in the order the request specifies.
Q, R, P
(Q: 17 µg/mL, R: 9 µg/mL, P: 1.3 µg/mL)

1 = CCCC(C#N)(CC)Nc1nc(NC)nc(-n2cncn2)n1 (racemic)
2 = CNc1nc(NC2(C#N)CCCC2)nc(-n2cncn2)n1
Looking at 1 and 2 , which one comes out lower in solubility terms? Answer format: the label of the selected item.
1
